TARGET_OR_SYSTEM: CDK3/Cyclin E1 (Homo sapiens, UniProt Q00526)
Sequence (Q00526 whole entry): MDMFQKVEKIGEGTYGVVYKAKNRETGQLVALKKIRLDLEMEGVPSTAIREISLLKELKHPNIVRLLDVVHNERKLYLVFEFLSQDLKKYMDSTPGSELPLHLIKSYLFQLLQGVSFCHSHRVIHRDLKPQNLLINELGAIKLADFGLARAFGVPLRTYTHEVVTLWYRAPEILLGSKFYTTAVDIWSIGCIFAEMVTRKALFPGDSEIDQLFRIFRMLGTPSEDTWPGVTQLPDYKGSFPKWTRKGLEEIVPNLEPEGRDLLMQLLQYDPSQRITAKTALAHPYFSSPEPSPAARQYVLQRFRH
Sequence (P24864 whole entry partner): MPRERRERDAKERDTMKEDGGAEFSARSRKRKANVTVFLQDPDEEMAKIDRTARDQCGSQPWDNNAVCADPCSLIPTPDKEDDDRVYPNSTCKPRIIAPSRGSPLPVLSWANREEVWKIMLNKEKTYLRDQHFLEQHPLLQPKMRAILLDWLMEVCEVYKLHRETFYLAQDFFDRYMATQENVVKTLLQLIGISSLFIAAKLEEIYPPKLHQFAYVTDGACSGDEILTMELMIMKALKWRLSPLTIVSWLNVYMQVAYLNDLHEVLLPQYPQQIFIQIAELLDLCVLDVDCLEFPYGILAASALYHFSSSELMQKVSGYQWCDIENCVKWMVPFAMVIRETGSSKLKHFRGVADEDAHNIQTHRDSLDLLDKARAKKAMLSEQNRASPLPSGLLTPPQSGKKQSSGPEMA
TEST_METHOD_NOTES: NanoBRET live-cell target engagement, CDK3-NanoLuc/Cyclin E1 in HEK-293
Format: binding
CONDITION_DESCRIPTION: CDK3/E1; read-out: IC50 (nM) Replicate 1
ASSAY_METRIC: IC50 (nM)

>>> df
                                   molecule                          target_or_system  unit_name  readout_number
0  CCCCOc1c(C(=O)c2c(F)cc(C)cc2F)c[nH]c2nncc1-2 [BMS-265246]  CDK3/Cyclin E1 (Homo sapiens, UniProt Q00526)         nM             6.5
1  CC(C)c1cnn2c(NCc3ccccc3)cc(N[C@@H](CO)[C@H](O)CO)nc12 [BS-194]  CDK3/Cyclin E1 (Homo sapiens, UniProt Q00526)         nM             6.9
2  CNC1CCN(C(=O)c2ccc(Nc3ncc(F)c(-c4cnc(C)n4C(C)C)n3)cc2)C1 (stereo not drawn) [AZD5597]  CDK3/Cyclin E1 (Homo sapiens, UniProt Q00526)         nM             1.6

====

TARGET_OR_SYSTEM: CDK11A/Cyclin L2 (Homo sapiens)
Sequence (Q9UQ88 whole entry): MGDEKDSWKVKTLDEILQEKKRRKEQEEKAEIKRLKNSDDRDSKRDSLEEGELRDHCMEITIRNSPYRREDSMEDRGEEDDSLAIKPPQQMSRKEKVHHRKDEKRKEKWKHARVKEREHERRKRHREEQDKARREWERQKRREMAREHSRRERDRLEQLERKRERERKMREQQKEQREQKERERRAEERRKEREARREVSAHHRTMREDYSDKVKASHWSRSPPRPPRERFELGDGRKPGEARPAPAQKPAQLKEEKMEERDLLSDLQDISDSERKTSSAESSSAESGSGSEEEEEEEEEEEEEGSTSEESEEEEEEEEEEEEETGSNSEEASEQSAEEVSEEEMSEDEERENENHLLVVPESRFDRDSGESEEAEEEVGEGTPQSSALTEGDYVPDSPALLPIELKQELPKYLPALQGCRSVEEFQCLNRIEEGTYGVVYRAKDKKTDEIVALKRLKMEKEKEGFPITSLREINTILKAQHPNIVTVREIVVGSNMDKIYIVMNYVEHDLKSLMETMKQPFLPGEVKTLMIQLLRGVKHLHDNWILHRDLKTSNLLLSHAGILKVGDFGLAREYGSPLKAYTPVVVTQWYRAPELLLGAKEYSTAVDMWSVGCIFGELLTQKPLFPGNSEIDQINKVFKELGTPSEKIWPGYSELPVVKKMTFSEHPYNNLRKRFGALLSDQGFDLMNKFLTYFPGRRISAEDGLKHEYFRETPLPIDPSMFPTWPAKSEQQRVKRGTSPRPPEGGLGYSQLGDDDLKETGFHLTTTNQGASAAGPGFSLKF
TEST_METHOD_NOTES: NanoBRET live-cell target engagement, CDK11A-NanoLuc/Cyclin L2 in HEK-293
Assay type: binding
CONDITION_DESCRIPTION: CDK11a/L2; experiment 2; read-out: Inhibition at 10µM (%)
The label depends only on inhibition at 10 µM: t if it is at least 20%, f if it is smaller.

                                    compound  category_label
 0  N#CCNC(=O)c1ccc(-c2ccnc(Nc3ccc(N4CCOCC4)cc3)n2)cc1 [Momelotinib]               t
 1  CN1CC[C@H](c2c(O)cc(O)c3c(=O)cc(-c4ccccc4Cl)oc23)[C@H](O)C1 [Flavopiridol]               t
 2  CC(C)(C)c1nc(-c2cccc(NS(=O)(=O)c3c(F)cccc3F)c2F)c(-c2ccnc(N)n2)s1 [Dabrafenib]               f
 3  CC(C)N1CCN(c2ccc(Nc3ncc4cc5n(c4n3)C3(CCCCC3)CNC5=O)nc2)CC1 [Lerociclib]               f
 4  CN1CCN(Cc2ccc(NC(=O)Nc3ccc(Oc4ccnc(N)n4)cc3)cc2C(F)(F)F)CC1 [K03861]               f
 5  CCc1cnn2c(NCc3ccc[n+]([O-])c3)cc(N3CCCC[C@H]3CCO)nc12 [Dinaciclib]               t
 6  CNC(=O)c1nn(C)c2c1C(C)(C)Cc1cnc(Nc3ccc(N4CCN(C)CC4)cc3)nc1-2 [Milciclib]               t
 7  CN1CCN(c2ccc(Nc3ncc4cc(C#N)c(=O)n(C5CCCC5)c4n3)cc2)CC1 [ON123300]               f
 8  NS(=O)(=O)c1ccc(Nc2nc(OCC3CCCCC3)c3nc[nH]c3n2)cc1 [NU6102]               f
 9  Cn1cc(-c2ccc(-c3cncc(Cl)c3N3CCC4(CCNC4=O)CC3)cc2)cn1 [CCT251545]               f
10  COc1ccc(F)cc1-c1cc(NC(=O)C2CCCNC2)ncc1Cl (stereo not drawn) [CDK inhibitor 2]               t
11  CC(C)c1cnn2c(NCc3ccccc3)cc(NC[C@H]3CCNC[C@@H]3O)nc12 [CT7001]               t
